Listed here: items and their measured remaining at 6 h.
assay: Chemical stability of the compound in at pH 7.4 measured at 6 hrs by HPLC based non-enzymatic stability assay; type: physicochemical; settings: buffer, read-out: Stability
State just the number; it will be interpreted in %.

>  <compound>
CNCc1ccc(-c2nnc(-c3nc(-c4ccc(S(=O)(=O)NCCCCCCC(=O)NCCCC#Cc5cccc6c5CN(C5CCC(=O)NC5=O)C6=O)cc4)cnc3N)o2)cc1 (stereo not drawn)

>  <remaining at 6 h [%]>
101

$$$$

[Q] Sample CNCc1ccc(-c2nnc(-c3nc(-c4ccc(S(=O)(=O)NCCCCC(=O)N5CCN(c6ccc7c(c6)C(=O)N(C6CCC(=O)NC6=O)C7=O)CC5)cc4)cnc3N)o2)cc1 (stereo not drawn) — what was its remaining at 6 h?
[A] 97

[Q] Sample CNCc1ccc(-c2nnc(-c3nc(-c4ccc(S(=O)(=O)NCCCCCC(=O)N5CCN(c6ccc7c(c6)C(=O)N(C6CCC(=O)NC6=O)C7=O)CC5)cc4)cnc3N)o2)cc1 (stereo not drawn) — what was its remaining at 6 h?
[A] 98

* * *

assay: Chemical stability of the compound in at pH 7.4 measured at 24 hrs by HPLC based non-enzymatic stability assay; assay type: physicochemical; details: buffer, read-out: Stability
Listed here: items and their measured remaining at 24 h.
State just the number; it will be interpreted in %.

Below, 2 compounds whose answers are already recorded.
>  <compound>
CNCc1ccc(-c2nnc(-c3nc(-c4ccc(S(=O)(=O)NCCCCCCC(=O)NCCCC#Cc5cccc6c5CN(C5CCC(=O)NC5=O)C6=O)cc4)cnc3N)o2)cc1 (stereo not drawn)

>  <result units>
%

>  <remaining at 24 h>
101

$$$$
>  <compound>
CNCc1ccc(-c2nnc(-c3nc(-c4ccc(S(=O)(=O)NCCCCCC(=O)NCC#Cc5cccc6c5CN(C5CCC(=O)NC5=O)C6=O)cc4)cnc3N)o2)cc1 (stereo not drawn)

>  <result units>
%

>  <remaining at 24 h>
101

$$$$

[Q] Sample Nc1ncc(-c2ccc(S(=O)(=O)NCCCCC(=O)N3CCN(c4ccc5c(c4)C(=O)N(C4CCC(=O)NC4=O)C5=O)CC3)cc2)nc1C(=O)Nc1ccccc1 (stereo not drawn) — what was its remaining at 24 h?
[A] 90

* * *

Listed here: items and their measured remaining at 12 h.
assay: Chemical stability of the compound in at pH 7.4 measured at 12 hrs by HPLC based non-enzymatic stability assay; assay type: physicochemical; conditions: buffer, read-out: Stability
Don't forget the unit after the value.

>  <molecule>
Nc1ncc(-c2ccc(S(=O)(=O)NCCCCC(=O)NCC#Cc3cccc4c3CN(C3CCC(=O)NC3=O)C4=O)cc2)nc1-c1nnc(-c2ccccc2)o1 (configuration not stated)

>  <remaining at 12 h>
105%

$$$$
>  <molecule>
CNCc1ccc(-c2nnc(-c3nc(-c4ccc(S(=O)(=O)NCCCCC(=O)N5CCN(c6ccc7c(c6)C(=O)N(C6CCC(=O)NC6=O)C7=O)CC5)cc4)cnc3N)o2)cc1 (configuration not stated)

>  <remaining at 12 h>
99%

$$$$
>  <molecule>
Nc1ncc(-c2ccc(S(=O)(=O)NCCCCCC(=O)N3CCN(c4cccc(C(=O)NC5CCC(=O)NC5=O)n4)CC3)cc2)nc1C(=O)Nc1ccccc1 (configuration not stated)

>  <remaining at 12 h>
104%

$$$$

[Q] Sample Nc1ncc(-c2ccc(S(=O)(=O)NCCCCCCC(=O)N3CCN(c4ccc5c(c4)C(=O)N(C4CCC(=O)NC4=O)C5=O)CC3)cc2)nc1C(=O)Nc1ccccc1 (configuration not stated) — what was its remaining at 12 h?
[A] 92%

[Q] Sample Nc1ncc(-c2ccc(S(=O)(=O)NCCCCC(=O)N3CCN(c4ccc5c(c4)C(=O)N(C4CCC(=O)NC4=O)C5=O)CC3)cc2)nc1-c1nnc(-c2ccccc2)o1 (configuration not stated) — what was its remaining at 12 h?
[A] 95%

[Q] Sample Nc1ncc(-c2ccc(S(=O)(=O)NCCCCCCCC(=O)NCC#Cc3cccc4c3CN(C3CCC(=O)NC3=O)C4=O)cc2)nc1C(=O)Nc1ccccc1 (configuration not stated) — what was its remaining at 12 h?
[A] 100%

[Q] Sample Nc1ncc(-c2ccc(S(=O)(=O)NCCCCCC(=O)N3CCN(c4ccc5c(c4)C(=O)N(C4CCC(=O)NC4=O)C5=O)CC3)cc2)nc1C(=O)Nc1ccccc1 (configuration not stated) — what was its remaining at 12 h?
[A] 101%

* * *

Listed here: items and their measured remaining at 48 h.
test: Chemical stability of the compound in at pH 7.4 measured at 48 hrs by HPLC based non-enzymatic stability assay; type: physicochemical; settings: buffer, read-out: Stability
State just the number; it will be interpreted in %.

Below, 4 compounds whose answers are already recorded.
>  <compound>
CNCc1ccc(-c2nnc(-c3nc(-c4ccc(S(=O)(=O)NCCCCCC(=O)N5CCN(c6ccc7c(c6)C(=O)N(C6CCC(=O)NC6=O)C7=O)CC5)cc4)cnc3N)o2)cc1 (stereo not drawn)

>  <result units>
%

>  <remaining at 48 h>
81

$$$$
>  <compound>
Nc1ncc(-c2ccc(S(=O)(=O)NCCCCCC(=O)NCCCC#Cc3cccc4c3CN(C3CCC(=O)NC3=O)C4=O)cc2)nc1C(=O)Nc1ccccc1 (stereo not drawn)

>  <result units>
%

>  <remaining at 48 h>
110

$$$$
>  <compound>
Cc1ncsc1-c1ccc(CNC(=O)[C@@H]2C[C@@H](O)CN2C(=O)[C@@H](NC(=O)CCOCCOCCOCCNS(=O)(=O)c2ccc(-c3cnc(N)c(C(=O)Nc4ccccc4)n3)cc2)C(C)(C)C)cc1

>  <result units>
%

>  <remaining at 48 h>
103

$$$$
>  <compound>
Cc1ncsc1-c1ccc(CNC(=O)[C@@H]2C[C@@H](O)CN2C(=O)[C@@H](NC(=O)CCCCCNS(=O)(=O)c2ccc(-c3cnc(N)c(C(=O)Nc4ccccc4)n3)cc2)C(C)(C)C)cc1

>  <result units>
%

>  <remaining at 48 h>
100

$$$$

[Q] Sample CNCc1ccc(-c2nnc(-c3nc(-c4ccc(S(=O)(=O)NCCCCCCC(=O)N5CCN(c6ccc7c(c6)C(=O)N(C6CCC(=O)NC6=O)C7=O)CC5)cc4)cnc3N)o2)cc1 (stereo not drawn) — what was its remaining at 48 h?
[A] 79

[Q] Sample Nc1ncc(-c2ccc(S(=O)(=O)NCCCCCC(=O)NCC#Cc3cccc4c3CN(C3CCC(=O)NC3=O)C4=O)cc2)nc1C(=O)Nc1ccccc1 (stereo not drawn) — what was its remaining at 48 h?
[A] 105

[Q] Sample Nc1ncc(-c2ccc(S(=O)(=O)NCCCCCCC(=O)N3CCN(c4ccc5c(c4)C(=O)N(C4CCC(=O)NC4=O)C5=O)CC3)cc2)nc1C(=O)Nc1ccccc1 (stereo not drawn) — what was its remaining at 48 h?
[A] 78

[Q] Sample Nc1ncc(-c2ccc(S(=O)(=O)NCCCCCC(=O)NCC#Cc3cccc4c3CN(C3CCC(=O)NC3=O)C4=O)cc2)nc1-c1nnc(-c2ccccc2)o1 (stereo not drawn) — what was its remaining at 48 h?
[A] 106
